- measurement-target: Prolyl endopeptidase FAP (Homo sapiens)
- Sequence (Q12884 whole entry): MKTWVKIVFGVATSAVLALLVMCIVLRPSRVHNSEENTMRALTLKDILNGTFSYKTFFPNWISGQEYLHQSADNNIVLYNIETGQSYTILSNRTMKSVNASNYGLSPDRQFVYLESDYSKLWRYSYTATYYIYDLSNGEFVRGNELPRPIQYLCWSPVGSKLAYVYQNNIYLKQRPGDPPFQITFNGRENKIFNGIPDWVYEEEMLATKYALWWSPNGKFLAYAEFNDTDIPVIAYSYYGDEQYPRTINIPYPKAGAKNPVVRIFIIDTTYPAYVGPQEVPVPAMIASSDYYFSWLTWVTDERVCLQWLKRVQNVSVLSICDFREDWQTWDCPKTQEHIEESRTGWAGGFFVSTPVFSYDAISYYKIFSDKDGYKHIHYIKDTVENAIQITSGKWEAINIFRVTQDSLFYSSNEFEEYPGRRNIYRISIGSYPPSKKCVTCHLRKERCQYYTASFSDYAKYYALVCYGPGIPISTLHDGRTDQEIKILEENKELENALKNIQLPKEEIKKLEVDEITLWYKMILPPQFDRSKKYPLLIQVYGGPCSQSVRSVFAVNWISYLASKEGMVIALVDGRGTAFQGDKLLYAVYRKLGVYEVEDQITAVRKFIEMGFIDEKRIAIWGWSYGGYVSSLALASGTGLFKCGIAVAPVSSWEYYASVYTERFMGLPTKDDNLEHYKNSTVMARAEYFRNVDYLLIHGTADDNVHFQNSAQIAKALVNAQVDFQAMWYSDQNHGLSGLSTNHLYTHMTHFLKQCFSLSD
pIC50: −log10 of the molar value.
# literature pull: Prolyl endopeptidase FAP (Homo sapiens) pIC50

Give pIC50 only, for `CN([C@H]1CC[C@H]([C@H](N)Cc2cc(F)ccc2F)CC1)S(=O)(=O)c1ccc(C#N)cc1` , using Prolyl endopeptidase FAP (Homo sapiens) data. < 4.46

Give pIC50 only, for `N#C[C@@H]1CC(F)(F)CN1C(=O)CNC(=O)c1csc(Cc2ccc(Cl)c(Cl)c2)n1` , using Prolyl endopeptidase FAP (Homo sapiens) data. 8.70

Give pIC50 only, for `N[C@H]1C[C@@H](N2Cc3cn[nH]c3C2)CO[C@@H]1c1ccccc1Cl` , using Prolyl endopeptidase FAP (Homo sapiens) data. < 4.00

Give pIC50 only, for `CC(C)(CC(=O)N[C@H]1C[C@@H]1c1cccnc1)NCC(=O)N1C[C@@H](F)C[C@H]1C#N` , using Prolyl endopeptidase FAP (Homo sapiens) data. < 4.70

Give pIC50 only, for `CN(C)C(=O)[C@@H](c1ccc(-c2ccc(=O)n(C)c2)cc1)[C@H](N)C(=O)N1CC[C@H](F)C1.O=C(O)C(F)(F)F` , using Prolyl endopeptidase FAP (Homo sapiens) data. < 4.40

Give pIC50 only, for `Cc1ccc(CCNC(=O)CC(C)(C)NCC(=O)N2CCC[C@H]2C#N)cc1` , using Prolyl endopeptidase FAP (Homo sapiens) data. < 4.70

Give pIC50 only, for `Cc1[nH]ncc1S(=O)(=O)N(C)[C@H]1CC[C@H]([C@H](N)Cc2cc(F)ccc2F)CC1` , using Prolyl endopeptidase FAP (Homo sapiens) data. < 4.46

Give pIC50 only, for `CC(C)=CCn1c(N2CCC[C@@H](N)C2)nc2c1C(=O)N(Cc1nc(C)c3ccccc3n1)C1=NCCN12` , using Prolyl endopeptidase FAP (Homo sapiens) data. 6.12

Give pIC50 only, for `N[C@H](Cc1cc(F)ccc1F)[C@H]1CC[C@@H](N2CCC(F)(F)C2)CC1` , using Prolyl endopeptidase FAP (Homo sapiens) data. < 4.46

Give pIC50 only, for `CCOC(=O)c1cncc(N2CCC([C@H](N)Cc3cc(F)ccc3F)CC2)c1` , using Prolyl endopeptidase FAP (Homo sapiens) data. < 4.46

Give pIC50 only, for `N#C[C@@H]1CC(F)(F)CN1C(=O)CNC(=O)c1csc(CS(=O)(=O)c2ccc(C(F)(F)F)cc2)n1` , using Prolyl endopeptidase FAP (Homo sapiens) data. 8.30

Give pIC50 only, for `CN(C(=O)c1cccnc1)[C@H]1CC[C@H]([C@H](N)Cc2cc(F)ccc2F)CC1` , using Prolyl endopeptidase FAP (Homo sapiens) data. < 4.46

Give pIC50 only, for `CC#CCn1c(N2CCC[C@@H](N)C2)nc2c1C(=O)N(Cc1ccc(C#N)cc1)C1=NCCN12` , using Prolyl endopeptidase FAP (Homo sapiens) data. 4.05

Give pIC50 only, for `Cc1noc(C)c1C(=O)N(C)[C@H]1CC[C@H]([C@H](N)Cc2cc(F)ccc2F)CC1` , using Prolyl endopeptidase FAP (Homo sapiens) data. < 4.46

Give pIC50 only, for `N[C@@H](CC(=O)N1CCn2c(nnc2C(F)(F)F)[C@@H]1Cc1ccc(F)cc1)Cc1cc(F)c(F)cc1F` , using Prolyl endopeptidase FAP (Homo sapiens) data. < 5.00

Give pIC50 only, for `C[C@H](CC(=O)NC(C)(C)c1ccccc1)NCC(=O)N1CCC[C@H]1C#N` , using Prolyl endopeptidase FAP (Homo sapiens) data. < 4.70

Give pIC50 only, for N[C@@H](CC(=O)N1CCn2c(nnc2C(F)(F)F)C1C(O)c1ccc(F)cc1)Cc1cc(F)c(F)cc1F (stereo in doubt; 47c) , using Prolyl endopeptidase FAP (Homo sapiens) data. < 5.00
